Quick list: melting point per entry.

> print(dat)
                             moleculesmiles      datavalue
1  CCCn1nc(C(C)C)cc1Cc1ccc(-c2ccccc2-c2nnn[nH]2)cc1  147 to 149 °C
2        CC(C)(C)OC(=O)CON=C(C(=O)O)c1ccco1  105 to 106 °C
3  CCN1C(=O)C(C)(C)C(=O)N(C)c2cc(CN(CCn3ccc4occc4c3=O)Cc3cccnc3COC)ccc21  123 to 125 °C

**Query** Which melting point is listed for `O=S(=O)(NCCCn1cncn1)c1ccc(Cl)cc1` ?
**Result** 77 to 79 °C

**Query** And then `COc1ccc(CCN(C)CCCCc2ccc(NC(=O)c3cccc4c(=O)c5cc(F)ccc5sc34)cc2)cc1OC` , what is it?
**Result** 145 °C
